B1: BTBD1 (parent)
chain: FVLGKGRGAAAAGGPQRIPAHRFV

- Variants of: B1
- method: protein stability index of a GFP-peptide fusion (GPS, HEK-293T) (PSI 1-6); higher = more stable;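 further: lentivirally expressed fusions sorted by FACS into six bins by GFP to DsRed ratio, PSI derived from sequencing read proportions per bin multiplied by bin number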
- measurement-parameters: c terminus: a fixed tail appended
endpoint-label: protein stability index
API doc: respond with a numeric literal and nothing else, no unit.

// known answers, use as guide
1) I18W : 1.91
2) G6Q : 1.91
3) L3N : 2.12
4) F23Q : 2.19
5) P15T : 2
6) F1L : 2.51

If you can, please state the reported protein stability index value of V24Q .
1.7

Also K5C ?
1.66

Also L3K ?
2.2

Also K5A ?
1.2

Also A11C ?
2.71

Also G13R ?
1.41

Also A11W ?
2.84

Also A9P ?
1.6
